- Read-out: E-selectin (Homo sapiens)
- ASSAY NAME: BSK_SAg_Eselectin: BioMAP Diversity Plus: SAg Assay for Eselectin Biomarker Activity (AID 2283091)
- ASSAY CONTEXT: primary human HUVEC with PBMC; actives raise or lower the signal
Calls of active or inactive are those of the source. Rule for the calls: active = hit-call score of the fitted dose curve at least 0.9, where 1 is the maximum; inactive = score below 0.9.
Reply using exactly one outcome from active, inactive

COMPOUND | QUALITATIVE LABEL
Clc1ccc(-c2ccccc2)cc1 | inactive
CC(C)COP(=O)(OCC(C)C)OCC(C)C | inactive
CC(C)(c1cc(Cl)c(O)c(Cl)c1)c1cc(Cl)c(O)c(Cl)c1 | active
COCC(=O)N(c1c(C)cccc1C)N1CCOC1=O | inactive
c1ccc(Nc2ccc3ccccc3c2)cc1 | inactive
C=CCN(CC=C)C(=O)C(Cl)Cl | inactive

Assay result, entry O=C(CCl)c1ccccc1 — outcome?
active

What did this assay record as the result for CCC(C)c1cc([N+](=O)[O-])cc([N+](=O)[O-])c1OC(=O)C=C(C)C (stereo unspecified) ?
active

Given Oc1cc(Cl)ccc1Cl , state the outcome it received in this test.
inactive

Status in this test for CC(=O)/C=C/c1ccccc1 ?
inactive
